Assay: moDC CC50 (CellTiter Glo viability)
Assay type: cell-based, Human
Details: human, uninfected moDCs
Listed molecules paired with reported CC50 at 48 h

molecule	CC50 at 48 h
C[C@H](NP(=O)(OC[C@@]1(CF)O[C@@H](c2ccc3c(N)ncnn23)[C@H](O)[C@@H]1O)Oc1ccccc1)C(=O)OC1CCCCC1 (stereo partly drawn)	> 7.76 µM
CCCCCCOC(=O)[C@H](C)N[P@@](=O)(OC[C@@]1(CF)O[C@@H](c2ccc3c(N)ncnn23)[C@H](O)[C@@H]1O)Oc1ccccc1 (single isomer, unassigned)	> 10.5 µM
CCC(=O)O[C@H]1[C@H](c2ccc3c(N)ncnn23)O[C@](CF)(CO[P@@](=O)(N[C@@H](C)C(=O)OC(C)C)Oc2ccccc2)[C@H]1OC(=O)CC	> 23.6 µM
C[C@H](NP(=O)(OC[C@@]1(CF)O[C@@H](c2ccc3c(N)ncnn23)[C@H](O)[C@@H]1O)Oc1ccccc1)C(=O)OCC(C)(C)C (stereo partly drawn)	> 11.1 µM
CCC(CC)COC(=O)[C@H](C)N[P@](=O)(OC[C@@]1(CF)O[C@@H](c2ccc3c(N)ncnn23)[C@H](O)[C@@H]1O)Oc1ccccc1	> 5.89 µM
CCOCCOCCOC(=O)[C@H](C)NP(=O)(OC[C@@]1(CF)O[C@@H](c2ccc3c(N)ncnn23)[C@H](O)[C@@H]1O)Oc1ccccc1 (stereo partly drawn)	> 25 µM
CC(C)OC(=O)[C@H](C)N[P@](=O)(OC[C@@]1(CF)O[C@@H](c2ccc3c(N)ncnn23)[C@H](O)[C@@H]1O)Oc1ccccc1 (single isomer, unassigned)	> 25 µM
COC(=O)[C@H](C)NP(=O)(OC[C@@]1(CF)O[C@@H](c2ccc3c(N)ncnn23)[C@H](O)[C@@H]1O)Oc1ccccc1 (stereo partly drawn)	> 19.5 µM
CCOC(=O)[C@H](C)NP(=O)(OC[C@@]1(CF)O[C@@H](c2ccc3c(N)ncnn23)[C@H](O)[C@@H]1O)Oc1ccccc1 (stereo partly drawn)	> 10.2 µM

* * *

Test: HEp-2 CC50 (cytotoxicity in uninfected HEp-2 cells)
Assay type: cell-based
Details: human, CellTiter Glo
Form field: CC50 at 4 days (one value per entry).

molecule	CC50 at 4 days
CCC(CC)COC(=O)[C@H](C)N[P@](=O)(OC[C@@]1(CF)O[C@@H](c2ccc3c(N)ncnn23)[C@H](O)[C@@H]1O)Oc1ccccc1	> 50 µM
CCOCCOCCOC(=O)[C@H](C)NP(=O)(OC[C@@]1(CF)O[C@@H](c2ccc3c(N)ncnn23)[C@H](O)[C@@H]1O)Oc1ccccc1 (stereo partly drawn)	> 100 µM
CCOC(=O)[C@H](C)NP(=O)(OC[C@@]1(CF)O[C@@H](c2ccc3c(N)ncnn23)[C@H](O)[C@@H]1O)Oc1ccccc1 (stereo partly drawn)	> 89.4 µM
